Test system: HOP-92 NSCLC
Test: NCI-60 one-dose screen, 48 h (100 = growth as untreated, 0 = no growth, -100 = all killed)
Details: 10 µM
Compounds without any hit were thinned out: in the full panel of roughly 83,000, 20% have a hit.
Class (required): determined from growth; valid ranges are class 1 (below -20%), class 2 (-20% to below 80%), class 3 (80% or more)

Observe how each entry below is paired with its result.
{"columns": ["COMPOUND", "GROUP LABEL"],
 "data": [
  ["Cc1cc(N=Nc2ccccc2C)ccc1N", "class 2"],
  ["CN1CCN(c2ccc([N+](=O)[O-])c3no[n+]([O-])c23)CC1", "class 1"],
  ["CCCCCCCCCCCC1CCCC(C)N1 (configuration not stated)", "class 2"],
  ["Cc1ccc(C(=O)OC(C(=O)O)C(OC(=O)c2ccc(C)cc2)C(=O)O)cc1 (configuration not stated) (tested in a mixture with another compound)", "class 2"],
  ["COc1ccc(OC)c(/C=C/[N+](=O)[O-])c1", "class 2"],
  ["Oc1cc[c]([Hg][Cl])cc1", "class 3"]
]}

# classify by growth band: O=C1c2ccccc2C(=O)C(Cl)C1Cl (configuration not stated)
class 1

Moving on to the next compound: CCOC(=O)C(NC(=O)C(Cc1ccc(N(CCCl)CCCl)cc1)NC(C)=O)C(C)C (configuration not stated)
class 3

Moving on to the next compound: CC[C@](O)(C(=O)O)c1cc2n(c(=O)c1CO)Cc1cc3ccccc3nc1-2
class 1

Moving on to the next compound: COc1cccc2c1cc([N+](=O)[O-])c1c(C(=O)O)cc3c(c12)OCO3
class 3

Moving on to the next compound: Oc1cccc2cccnc12
class 3
